Protocol summary: Measurement of log P values by HPLC on reversed phase columns (methods [a] pH 2.3, [b] pH 2.7, [c] pH 7.8)
Assay type: physicochemical
Condition context: method [b], HPLC reversed phase, pH 2.7
Protocol: Measurement of log P-Values: Measurement of log P Values was Performed According EEC Directive 79/831 Annex V.A8 by HPLC (High Performance Liquid Chromatography) on reversed phase columns with the following methods: ^[a] […]
logP for assorted compounds

> print(dat)
                                   compound  endpoint.result
1  Cn1cc(C(=O)N(C2CC2)C2CCCCC2c2ccccc2)c(C(F)F)n1 (stereo not shown) [Example 138]         3.60^[b]
2  Cc1nn(C)c(F)c1C(=O)N(C1CC1)C1CCCCC1c1ccccc1 (stereo not shown)         3.53^[b]
3  Cc1nn(C)c(C)c1C(=O)N(C1CC1)C1CCCCC1c1ccccc1 (stereo not shown)         3.13^[b]
4  O=C(NC1CC1c1ccc(Cl)cc1)c1c(F)cccc1F (stereo not shown)         2.94^[b]
5  Cc1nn(C)c(F)c1C(=O)N(C1CC1)C1CCCC1c1ccc(Cl)cc1Cl (stereo not shown)         4.18^[b]
6  O=C(NC1CC1c1ccccc1Cl)c1ccccc1I (stereo not shown)         3.14^[b]

Lab note: next compound to report on.
Briefly, logP measured for CCc1nn(C)c(F)c1C(=O)N(C1CC1)C1CCCCC1c1ccc(Cl)cc1Cl (stereo not shown) : 5.08^[b]

###

Protocol summary: Measurement of log P values by HPLC on reversed phase columns (methods [a] pH 2.3, [b] pH 2.7, [c] pH 7.8)
Assay type: physicochemical
Condition context: HPLC reversed phase, method [b] (pH 2.7)
Measure name: logP

Example compounds with recorded logP:
> print(dat)
                                   compound  measure.name  endpoint.result
1  O=C(N[C@@H]1CC[C@H]1c1ccc(F)cc1C(F)(F)F)c1ccccc1[N+](=O)[O-] (relative stereo) [Example 521]          logP         3.10^[b]
2  O=C(NC1CCC1c1ccc(Cl)cc1Cl)c1c(F)cccc1F (stereo not shown) [Compound 482]          logP         3.70^[b]
3  O=C(N[C@@H]1CC[C@@H]1c1cccc(F)c1C(F)(F)F)c1ccccc1C(F)(F)F (relative stereo) [Compound 589]          logP         3.38^[b]

Briefly, logP measured for Cc1nc(C)c(C(=O)NC2CCCC2c2ccccc2Cl)s1 (stereo not shown) [Example 291] : 2.73^[b]

###

logP for assorted compounds
Protocol summary: Measurement of log P values by HPLC on reversed phase columns (methods [a] pH 2.3, [b] pH 2.7, [c] pH 7.8)
Type: physicochemical
Condition context: HPLC reversed phase, method [b] (pH 2.7)

> print(dat)
                                   compound  measure.name  endpoint.result
1  O=C(N[C@@H]1CC[C@@H]1c1c(F)cccc1C(F)(F)F)c1ccccc1[N+](=O)[O-] (relative stereo)          logP         3.03^[b]
2  O=C(N[C@@H]1CC[C@@H]1c1ccc(F)cc1C(F)(F)F)c1c(F)cccc1F (relative stereo)          logP         3.18^[b]
3  O=C(N[C@@H]1CC[C@@H]1c1ccccc1Cl)c1cccnc1Cl (relative stereo)          logP         2.40^[b]
4  O=C(N[C@@H]1CC[C@H]1c1cccc(F)c1C(F)(F)F)c1ccccc1C(F)(F)F (relative stereo)          logP         3.63^[b]
5  O=C(NC1CCCCC1c1ccccc1Br)c1cccnc1C(F)(F)F (stereo not drawn)          logP         3.53^[b]

Briefly, logP measured for O=C(NC1CC1c1ccc(Cl)cc1)c1ccccc1F (stereo not drawn) : 3.12^[b]

Briefly, logP measured for O=C(N[C@@H]1C[C@@H]1c1ccc(Cl)cc1)c1nccnc1C(F)(F)F (relative stereo) : 2.68^[b]

Briefly, logP measured for Cc1nc(C(F)(F)F)c(C(=O)N[C@@H]2CCC[C@@H]2c2ccccc2F)s1 (relative stereo) : 3.18^[b]

###

logP for assorted molecules
Protocol summary: Measurement of log P values by HPLC on reversed phase columns (methods [a] pH 2.3, [b] pH 2.7, [c] pH 7.8)
Type: physicochemical
Condition context: HPLC reversed phase, method [b] (pH 2.7)

> print(dat)
                                   molecule  endpoint.result
1  O=C(NC1CC1c1ccc(Cl)cc1)c1ccccc1Br (stereo not drawn) [Example 272]         2.82^[b]
2  O=C(NC1CCC1c1ccccc1Cl)c1ccc(Cl)cc1 (stereo not drawn) [Example 446]         3.70^[b]
3  O=C(N[C@@H]1CC[C@@H]1c1ccccc1Cl)c1ccccc1I (relative stereo) [Compound 250]         3.23^[b]
4  Cc1nn(C)cc1C(=O)NC1CCCCC1c1ccc(Cl)cc1Cl (stereo not drawn) [Example 416]         3.19^[b]
5  O=C(NC1CCC1c1ccc(Cl)cc1Cl)c1cccnc1C(F)(F)F (stereo not drawn) [Compound 481]         3.20^[b]

Lab note: next molecule to report on.
Briefly, logP measured for O=C(NC1CC1c1ccc(Cl)cc1)c1ccccc1I (stereo not drawn) [Compound 273] : 2.94^[b]

###

logP for assorted compounds
Protocol summary: Measurement of log P values by HPLC on reversed phase columns (methods [a] pH 2.3, [b] pH 2.7, [c] pH 7.8)
Format: physicochemical
Condition context: HPLC reversed phase, method [b] (pH 2.7)

Example compounds with recorded logP:
> print(dat)
                                   compound  measure.name  endpoint.result
1  O=C(NC1CCC1c1ccccc1Cl)c1ccccc1 (stereo not shown) [Example 449]          logP         2.81^[b]
2  O=C(NC1CCC1c1ccc(Cl)cc1Cl)c1ccccc1 (stereo not shown) [Compound 451]          logP         3.30^[b]
3  O=C(NC1CCCC1c1ccc(Cl)cc1Cl)c1cccnc1Cl (stereo not shown) [Example 356]          logP         3.20^[b]
4  O=C(NC1CC1c1ccc(Cl)cc1)c1ccccc1Cl (stereo not shown) [Example 275]          logP         2.77^[b]
5  O=C(NC1CCCCC1c1ccc(Cl)cc1)c1ccccc1I (stereo not shown) [Example 372]          logP         3.84^[b]

Briefly, logP measured for O=C(N[C@@H]1CC[C@H]1c1ccc(F)cc1C(F)(F)F)c1ccccc1I (relative stereo) [Compound 502] : 3.76^[b]

Briefly, logP measured for O=C(N[C@@H]1CC[C@H]1c1ccc(Cl)cc1Cl)c1ccc(Cl)cc1Cl (relative stereo) [Example 265] : 4.48^[b]

Briefly, logP measured for O=C(NC1CCCC1c1c(F)cccc1F)c1c(F)cccc1F (stereo not shown) [Example 314] : 3.05^[b]

Briefly, logP measured for Cn1cc(C(=O)N[C@@H]2CC[C@@H]2c2ccccc2C(F)(F)F)c(C(F)F)n1 (relative stereo) [Example 263] : 2.75^[b]

Briefly, logP measured for Cc1nc(C)c(C(=O)NC2CCCCC2c2ccc(Cl)cc2)s1 (stereo not shown) [Example 366] : 3.03^[b]

Briefly, logP measured for O=C(NC1CCCC1c1ccc(Cl)cc1Cl)c1cccnc1C(F)(F)F (stereo not shown) [Compound 358] : 3.54^[b]

###

Protocol summary: Measurement of log P values by HPLC on reversed phase columns (methods [a] pH 2.3, [b] pH 2.7, [c] pH 7.8)
Format: physicochemical
Condition context: HPLC reversed phase, method [b] (pH 2.7)
Measure name: logP

> print(dat)
                                   compound  endpoint.result
1  O=C(NC1CCCCC1c1ccc(Cl)cc1)c1ccccc1Cl (stereo not shown)         3.65^[b]
2  O=C(NC1CCCCC1c1ccc(Cl)cc1)c1c(F)cccc1F (stereo not shown)         3.50^[b]
3  Cc1nn(C)cc1C(=O)NC1CCCC1c1ccc(Cl)cc1Cl (stereo not shown)         2.67^[b]
4  O=C(N[C@@H]1CC[C@@H]1c1c(F)cccc1C(F)(F)F)c1ccccc1 (relative stereo)         3.23^[b]

Briefly, logP measured for Cc1nc(C)c(C(=O)NC2CCCC2c2c(F)cccc2F)s1 (stereo not shown) : 2.65^[b]

Briefly, logP measured for O=C(NC1CC1c1ccc(Cl)cc1)c1nccnc1Cl (stereo not shown) : 2.29^[b]

Briefly, logP measured for Cn1cc(C(=O)NC2CCCCCC2c2ccccc2C(F)(F)F)c(C(F)F)n1 (stereo not shown) : 3.69^[b]

Briefly, logP measured for O=C(NC1CCCCC1c1ccc(C(F)(F)F)cc1)c1ccccc1C(F)(F)F (stereo not shown) : 4.12^[b]

Briefly, logP measured for Cn1cc(C(=O)NC2CCC2c2ccc(F)cc2C(F)(F)F)c(C(F)F)n1 (stereo not shown) [Example 484] : 3.02^[b]

Briefly, logP measured for O=C(NC1CCCC1c1ccccc1Cl)c1ccccc1Cl (stereo not shown) : 3.42^[b]
